# assayed system: T1, human FcγRIIIB (human, UniProt O75015 17-200)
# T1 construct: Bought protein, construct not described
# T1 sequence (O75015 17-200 limits assumed): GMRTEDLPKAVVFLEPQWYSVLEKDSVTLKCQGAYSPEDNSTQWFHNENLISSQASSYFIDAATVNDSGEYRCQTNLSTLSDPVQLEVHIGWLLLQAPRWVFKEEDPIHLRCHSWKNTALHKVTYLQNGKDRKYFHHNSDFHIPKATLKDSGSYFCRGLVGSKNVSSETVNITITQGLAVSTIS
# measurement description: ELISA, receptor coated on plate
# Procedure: ELISAs were used to investigate the binding of oligomeric Fc mutants to FcγRI, FcγRIIA, FcγRIIB, FcγRIIIA and FcγRIIIB (all from R&D laboratories). Receptors were coated down to ELISA plates (Nunc) in carbonate buffer pH9 (Sigma-Aldrich) at 2 μg/ml overnight at 4° C. Plates were then blocked in PBS/0.1% Tween-20 (PBST) containing 4% skimmed milk (Tesco). […] Plates were read at 405 nm and data plotted with Graphpad prism.
endpoint name: binding result

binder="D221N/N297A mutant of hexa-Fc (Fc fusion, N-linked glycans at Asn221 (N1) and Asn563 (N236), Made on the hexa-Fc template in CHO-K1 cells; multimeric) NKTHTCPPCPAPELLGGPSVFLFPPKPKDTLMISRTPEVTCVVVDVSHEDPEVKFNWYVDGVEVHNAKTKPREEQYASTYRVVSVLTVCLQDWLNGKEYKCKVSNKALPAPIEKTISKAKGQPREPQVYTLPPSREEMTKNQVSLTCLVKGFYPSDIAVEWESNGQPENNYKTTPPVLDSDGSFFLYSKLTVDKSRWQQGNVFSCSVMHEALHNHYTQKSLSLSPGKLVLGPPLYNVSLVMSDTAGTCY" endpoint_name="binding result" test_value="no binding"
binder="D221N mutant of hexa-Fc (Fc fusion, N-linked glycans at Asn221 (N1), Asn297 (N77) and Asn563 (N236), Made on the hexa-Fc template in CHO-K1 cells; multimeric, hyper-sialylated) NKTHTCPPCPAPELLGGPSVFLFPPKPKDTLMISRTPEVTCVVVDVSHEDPEVKFNWYVDGVEVHNAKTKPREEQYNSTYRVVSVLTVCLQDWLNGKEYKCKVSNKALPAPIEKTISKAKGQPREPQVYTLPPSREEMTKNQVSLTCLVKGFYPSDIAVEWESNGQPENNYKTTPPVLDSDGSFFLYSKLTVDKSRWQQGNVFSCSVMHEALHNHYTQKSLSLSPGKLVLGPPLYNVSLVMSDTAGTCY" endpoint_name="binding result" test_value="no binding"
binder="D221N/N563A mutant of hexa-Fc (Fc fusion, N-linked glycans at Asn221 (N1) and Asn297 (N77), Made on the hexa-Fc template in CHO-K1 cells; runs as higher order multimers approximating dodecamers; also called D221/N563A; D221N/N563A dodecamer) NKTHTCPPCPAPELLGGPSVFLFPPKPKDTLMISRTPEVTCVVVDVSHEDPEVKFNWYVDGVEVHNAKTKPREEQYNSTYRVVSVLTVCLQDWLNGKEYKCKVSNKALPAPIEKTISKAKGQPREPQVYTLPPSREEMTKNQVSLTCLVKGFYPSDIAVEWESNGQPENNYKTTPPVLDSDGSFFLYSKLTVDKSRWQQGNVFSCSVMHEALHNHYTQKSLSLSPGKLVLGPPLYAVSLVMSDTAGTCY" endpoint_name="binding result" test_value=binds
